Reported pest or weed control at 80 g/ha values for the following molecules.
system: Setaria viridis (SETVI); assay: Herbicidal pre-emergence action, section C (Table C8); type: in vivo; conditions: Setaria viridis, pre-emergence, 504 h; application rate 80 g/ha; visual grading after ca. 3 weeks; read-out: pre-emergence activity against SETVI in %
property: pest or weed control at 80 g/ha (%)

molecule | property | value.measured
Cc1cc2c(nc1-c1cccc(F)c1F)NCS2 | pest or weed control at 80 g/ha | 100
Cc1cc2c(nc1-c1ccccc1F)NCS2 | pest or weed control at 80 g/ha | 100
Fc1ccccc1-c1nc2c(cc1Br)SCN2 | pest or weed control at 80 g/ha | 100
Cc1cc2c(nc1-c1ccccc1Cl)NCS2 | pest or weed control at 80 g/ha | 100
CCOCCS(=O)(=O)N1C[S+]([O-])c2cc(C)c(-c3ccccc3F)nc21 (stereo not shown) | pest or weed control at 80 g/ha | 100
Clc1ccccc1-c1nc2c(cc1Br)SCN2 | pest or weed control at 80 g/ha | 90
CCS(=O)(=O)N1CSc2cc(C)c(-c3ccccc3F)nc21 | pest or weed control at 80 g/ha | 100

The values you see were collected from patent US20240381872A1.
